Each entry below lists one item and its recorded IC50 value.
system: Vero; experiment: Cytotoxicity against African green monkey Vero cells assessed as reduction in cell viability after 72 hrs by MTT assay; format: cell-based; conditions: Chlorocebus sabaeus

Here is how some molecules turned out for IC50.
>  <molecule>
CCCCc1nc(Cl)c(C2NC(=O)NC(C)=C2C(=O)Nc2ccccc2F)[nH]1 (stereo not drawn)

>  <IC50>
> 10 µg/mL

$$$$
>  <molecule>
CCCCc1nc(Cl)c(C2NC(=O)NC(C)=C2C(=O)Nc2ccc(F)cc2)[nH]1 (stereo not drawn)

>  <IC50>
> 10 µg/mL

$$$$

As a next step, examine the molecule that follows.
Record CCCCc1nc(Cl)c(C2NC(=O)NC(C)=C2C(=O)Nc2ccc([N+](=O)[O-])cc2)[nH]1 (stereo not drawn) ; system Vero; IC50 = > 10 µg/mL

src = ChEMBL document CHEMBL4425147
